Target: human neurokinin-3 receptor (Homo sapiens)
Construct: expressed in transfected cells; host or cells: CHO
Sequence (P29371 1-465): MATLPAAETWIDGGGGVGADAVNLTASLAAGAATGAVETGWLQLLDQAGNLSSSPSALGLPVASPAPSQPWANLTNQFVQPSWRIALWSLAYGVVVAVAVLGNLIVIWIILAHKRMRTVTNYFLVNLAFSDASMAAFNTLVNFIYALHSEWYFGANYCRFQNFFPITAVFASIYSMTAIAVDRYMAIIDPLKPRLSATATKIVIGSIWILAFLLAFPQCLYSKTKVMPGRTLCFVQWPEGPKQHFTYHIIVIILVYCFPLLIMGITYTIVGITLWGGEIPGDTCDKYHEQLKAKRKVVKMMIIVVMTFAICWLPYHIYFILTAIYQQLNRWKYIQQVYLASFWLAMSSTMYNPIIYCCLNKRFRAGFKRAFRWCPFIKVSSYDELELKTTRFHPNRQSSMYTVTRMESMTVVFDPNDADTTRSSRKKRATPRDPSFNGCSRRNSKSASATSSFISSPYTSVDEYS
Assay: Binding affinity to human NK-3 receptor expressed in CHO cells (inhibition of [125I]-[Me-Phe7]-NKB or [3H]-Senktide binding)
Conditions: human neurokinin-3 receptor expressed in CHO cell lines; read-out: Binding affinity, Ki (nM) hNK-3-CHO
Protocol: The activity of the compounds of the present invention, as NK3 ligands, is determined by their ability to inhibit the binding of the radiolabelled NK3 ligands, [^125I]-[Me-Phe^7]-NKB or [^3H]-Senktide, to guinea-pig and human NK3 receptors (Renzetti et al, 1991, Neuropeptide, 18, 104-114; Buell et al, 1992, FEBS, 299(1), 90-95; Chung et al, 1994, Biochem. Biophys. Res. Commun., 198(3), 967-972). […]
readoutKind: Ki (nM)

I: CC[C@H](NC(=O)c1c(CN2CCCCC2)c(-c2ccccc2)nc2ccccc12)c1ccccc1
II: CC[C@H](NC(=O)c1c(CCN2CCN(c3ccc(Cl)cc3)CC2)c(-c2ccccc2)nc2ccccc12)c1ccccc1
Inquiry: Which record shows the lower Ki: the first, I , or the second, II ? Identify your pick by its label.
Reply text: I

* * *

biological target: human neurokinin-3 receptor (Homo sapiens, UniProt P29371); construct: expressed in transfected cells; host or cells: CHO; test: Binding affinity to human NK-3 receptor expressed in CHO cells (inhibition of [125I]-[Me-Phe7]-NKB or [3H]-Senktide binding); conditions: human neurokinin-3 receptor expressed in CHO cell lines; read-out: Binding affinity, Ki (nM) hNK-3-CHO
readoutKind: Ki (nM)

compound	experimentalTarget	Ki, nM
CC[C@H](NC(=O)c1c(CCN2CCN(c3ccc(C)cc3)CC2)c(-c2ccccc2)nc2ccccc12)c1ccccc1 [Example 29]	human neurokinin-3 receptor (Homo sapiens, UniProt P29371)	2.5
CC[C@H](NC(=O)c1c(CCCN2CCN(c3ccccc3)CC2)c(-c2ccccc2)nc2ccccc12)c1ccccc1 [Example 13]	human neurokinin-3 receptor (Homo sapiens, UniProt P29371)	0.3

I: CC[C@H](NC(=O)c1c(CN2CCC3(CC2)OCCO3)c(-c2ccccc2)nc2ccccc12)c1ccccc1 [Example 9]
II: CC[C@H](NC(=O)c1c(CN2CCN(C(C)C)CC2)c(-c2ccccc2)nc2ccccc12)c1ccccc1 [Example 20]
Inquiry: So which one has the bigger Ki here, I or II ? Indicate your choice by writing its label.
Reply text: II
(II: 1.8 nM, I: 0.8 nM)

A: CC[C@H](NC(=O)c1c(CCCCN2CCN(c3ccccc3)CC2)c(-c2ccccc2)nc2ccccc12)c1ccccc1 [Example 14]
B: CC[C@H](NC(=O)c1c(CN2CCN(CC)CC2)c(-c2ccccc2)nc2ccccc12)c1ccccc1 [Example 36]
C: CC[C@H](NC(=O)c1c(CN2CCC3(CCCC3)CC2)c(-c2ccccc2)nc2ccccc12)c1ccccc1 [Example 31]
D: CC[C@H](NC(=O)c1c(CCCN2CCC(c3ccccc3)CC2)c(-c2ccccc2)nc2ccccc12)c1ccccc1 [Example 25]
Inquiry: In this exercise, place the 4 compounds in ascending sequence of their recorded Ki. Thanks in advance for listing the labels in the requested order.
Reply text: D, A, B, C

a: CC[C@H](NC(=O)c1c(CN2CCC(=O)CC2)c(-c2ccccc2)nc2ccccc12)c1ccccc1 [Example 17]
b: CC[C@H](NC(=O)c1c(CCCN2C(=O)c3ccccc3C2=O)c(-c2ccccc2)nc2ccccc12)c1ccccc1 [Example 21]
c: CC[C@H](NC(=O)c1c(CN2CC[C@@H](O)C2)c(-c2ccccc2)nc2ccccc12)c1ccccc1 [Example 33]
Inquiry: Please produce an ascending ranking of these compounds based on Ki. List the labels, following the order given in the request.
Reply text: b, a, c
(b: 0.9 nM, a: 1.5 nM, c: 2.9 nM)

* * *

Target: human neurokinin-2 receptor (Homo sapiens)
Construct: expressed in transfected cells; host or cells: CHO
Sequence (P21452 1-398): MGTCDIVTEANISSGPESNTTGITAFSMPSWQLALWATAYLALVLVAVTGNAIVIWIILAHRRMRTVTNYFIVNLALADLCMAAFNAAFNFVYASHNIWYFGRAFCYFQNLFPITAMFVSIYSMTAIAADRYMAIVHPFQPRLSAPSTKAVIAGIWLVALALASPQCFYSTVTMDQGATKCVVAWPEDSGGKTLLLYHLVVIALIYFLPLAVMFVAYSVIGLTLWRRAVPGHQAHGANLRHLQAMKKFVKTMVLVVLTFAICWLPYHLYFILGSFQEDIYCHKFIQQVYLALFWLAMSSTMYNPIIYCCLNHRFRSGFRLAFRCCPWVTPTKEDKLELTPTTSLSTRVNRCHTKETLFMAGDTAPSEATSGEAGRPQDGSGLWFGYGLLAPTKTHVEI
Assay: Binding affinity to human NK-2 receptor expressed in CHO cells (inhibition of [125I]-NKA or [3H]-NKA binding)
Details: human neurokinin-2 receptor expressed in CHO cell lines; read-out: Binding affinity, Ki (nM) hNK-2-CHO
readoutKind: Ki (nM)

Reference set (4 entries):
molecule	unitSymbol	Ki
CC[C@H](NC(=O)c1c(CN2CCN(CCc3ccccc3)CC2)c(-c2ccccc2)nc2ccccc12)c1ccccc1 [Example 37]	nM	0.9
CC[C@H](NC(=O)c1c(CCN2CCN(c3ccc(F)cc3)CC2)c(-c2ccccc2)nc2ccccc12)c1ccccc1 [Example 30]	nM	27.1
CC[C@H](NC(=O)c1c(CN2CCN(C(C)C)CC2)c(-c2ccccc2)nc2ccccc12)c1ccccc1 [Example 20]	nM	5.7
CC[C@H](NC(=O)c1c(CCCN2CCN(c3ccccc3)CC2)c(-c2ccccc2)nc2ccccc12)c1ccccc1 [Example 13]	nM	3.8

P: CC[C@H](NC(=O)c1c(CN2CCC3(CCCC3)CC2)c(-c2ccccc2)nc2ccccc12)c1ccccc1 [Example 31]
Q: CC[C@H](NC(=O)c1c(CN2CCN(CC)CC2)c(-c2ccccc2)nc2ccccc12)c1ccccc1 [Example 36]
Inquiry: Kindly compare P with Q and tell me which has the lower Ki figure. Which one? Tell me its label.
Reply text: Q
(Q: 12.7 nM, P: 143 nM)

1: CC[C@H](NC(=O)c1c(CN2CCC(=O)CC2)c(-c2ccccc2)nc2ccccc12)c1ccccc1 [Example 17]
2: CC[C@H](NC(=O)c1c(CCCN2CCN(c3ccc(Cl)cc3)CC2)c(-c2ccccc2)nc2ccccc12)c1ccccc1 [Example 24]
3: CC[C@H](NC(=O)c1c(CN2CCCCC2)c(-c2ccccc2)nc2ccccc12)c1ccccc1 [Example 8]
Inquiry: Ordering criterion: Ki; begin with the maximum. Form entry: ranked labels (order as requested).
Reply text: 1, 3, 2
(1: 42.7 nM, 3: 24.1 nM, 2: 3.3 nM)

I: CC[C@H](NC(=O)c1c(CN2CC[C@H](O)C2)c(-c2ccccc2)nc2ccccc12)c1ccccc1 [Example 32]
II: CC[C@H](NC(=O)c1c(CCN2CCN(C(C)C)CC2)c(-c2ccccc2)nc2ccccc12)c1ccccc1 [Example 39]
III: CC[C@H](NC(=O)c1c(CCCN2CCC(c3ccccc3)CC2)c(-c2ccccc2)nc2ccccc12)c1ccccc1 [Example 25]
IV: CC[C@H](NC(=O)c1c(CN2CCC3(CC2)OCCO3)c(-c2ccccc2)nc2ccccc12)c1ccccc1 [Example 9]
V: CC[C@H](NC(=O)c1c(CCCN2CCN(c3cccc(C(F)(F)F)c3)CC2)c(-c2ccccc2)nc2ccccc12)c1ccccc1 [Example 23]
Inquiry: Let's sort these by Ki, smallest first. Go ahead? Your task in answering is to list the labels in the requested order.
Reply text: III, V, IV, II, I
(III: 1.5 nM, V: 9.7 nM, IV: 18.2 nM, II: 35.6 nM, I: 68.8 nM)

1: CC[C@H](NC(=O)c1c(CN2CCN(Cc3ccccc3)CC2)c(-c2ccccc2)nc2ccccc12)c1ccccc1 [Example 26]
2: CC[C@H](NC(=O)c1c(CN2CCC(=O)C2)c(-c2ccccc2)nc2ccccc12)c1ccccc1 [Example 34]
3: CC[C@H](NC(=O)c1c(CN(C)CCO)c(-c2ccccc2)nc2ccccc12)c1ccccc1 [Example 6]
Inquiry: Arrange the 3 entries by Ki so the values rise. A complete answer lists every label in the requested sequence.
Reply text: 1, 2, 3
(1: 1.7 nM, 2: 38 nM, 3: 65.5 nM)
